Where do the numbers come from? From patent US12617783B2.

# Lookup of reported pEC50 keyed by entry
# ASSAY_SYSTEM: human GLP-1R (Homo sapiens)
# Construct: host or cells: HEK293
# Sequence (P43220 24-463): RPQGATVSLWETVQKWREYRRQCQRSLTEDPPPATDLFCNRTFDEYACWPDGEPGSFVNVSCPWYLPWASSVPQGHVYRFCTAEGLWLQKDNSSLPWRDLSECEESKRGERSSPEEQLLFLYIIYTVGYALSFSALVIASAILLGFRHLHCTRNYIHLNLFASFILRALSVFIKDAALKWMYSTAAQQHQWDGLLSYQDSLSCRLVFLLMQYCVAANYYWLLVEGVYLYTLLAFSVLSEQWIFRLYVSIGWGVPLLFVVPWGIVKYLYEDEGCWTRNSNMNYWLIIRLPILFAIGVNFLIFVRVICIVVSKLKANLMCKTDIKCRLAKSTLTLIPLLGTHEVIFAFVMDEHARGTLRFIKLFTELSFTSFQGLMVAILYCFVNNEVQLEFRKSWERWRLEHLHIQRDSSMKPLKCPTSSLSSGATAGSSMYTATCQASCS
# PROCEDURE_DETAILS: GLP-1R cAMP assay (Example B1a, HTRF, 30 min at room temperature)
# Assay type: cell-based
# EXPERIMENTAL_CONTEXT: Table 1d, stereoisomer pairs; read-out: EC50
pEC50: −log10 of the molar value.
PROPERTY_MEASURED: pEC50

>>> reported_result("Cc1cc(-n2nc3c(c2-n2ccn(-c4ccc5c(cnn5C)c4F)c2=O)[C@@H]2CC[C@H]([C@@H]3F)N2C(=O)c2cc3cc([C@H]4CCOC(C)(C)C4)ccc3n2[C@@]2(c3noc(=O)[nH]3)C[C@@H]2C)cc(C)c1F [Compound 515]")
6.92
>>> reported_result("Cc1cc(-n2nc3c(c2-n2ccn(-c4ccc5c(cnn5C)c4F)c2=O)[C@@H]2CC[C@H](C3)N2C(=O)c2cc3cc([C@H]4CCOC5(CC5)C4)ccc3n2[C@@]2(c3noc(=O)[nH]3)C[C@@H]2C)cc(C)c1F [Compound 214]")
7.28
>>> reported_result("Cc1cc(-n2nc3c(c2-n2ccn(-c4ccc5c(cnn5C)c4F)c2=O)[C@@H]2COC[C@H](C3)N2C(=O)c2cc3cc([C@H]4CCOC(C)(C)C4)ccc3n2[C@@]2(c3noc(=O)[nH]3)C[C@@H]2C)cc(C)c1F [Compound 121]")
7.09
>>> reported_result("Cc1cc(-n2nc3c(c2-n2ccn(-c4ccc5c(cnn5C)c4F)c2=O)[C@@H]2CCC[C@H](C3)N2C(=O)c2cc3cc([C@H]4CCOC(C)(C)C4)ccc3n2[C@@]2(c3noc(=O)[nH]3)C[C@@H]2C)cc(C)c1F [Compound 433]")
7.52
>>> reported_result("Cc1cc(-n2nc3c(c2-n2ccn(-c4ccc5c(cnn5C)c4F)c2=O)[C@@H]2CC[C@H]([C@H]3F)N2C(=O)c2cc3cc([C@H]4CCOC(C)(C)C4)ccc3n2[C@@]2(c3noc(=O)[nH]3)C[C@@H]2C)cc(C)c1F [Compound 512]")
6.65
>>> reported_result("Cc1cc(-n2nc3c(c2-n2ccn(-c4ccc5c(cnn5C)c4F)c2=O)[C@@H]2CC[C@H](C3)N2C(=O)c2cc3cc([C@H]4CCOC(C)(C)C4)ccc3n2[C@@]2(c3noc(=O)[nH]3)C[C@@H]2C)cc(C)c1F [Compound 36]")
6.96
>>> reported_result("Cc1cc(-n2nc3c(c2-n2ccn(-c4ccc5c(cnn5C)c4F)c2=O)[C@H]2CC[C@@H](C3)N2C(=O)c2cc3cc([C@H]4CCOC5(CC5)C4)ccc3n2[C@@]2(c3noc(=O)[nH]3)C[C@@H]2C)cc(C)c1F [Compound 411]")
6.19
